experiment description: Oral bioavailability in monkey at 5 mg/kg
Type: ADME, organism-based, Macaca mulatta
condition details: rhesus monkey, in vivo
endpoint name: bioavailability (%)
Please respond with the number in % and leave the unit unwritten.

For reference, reported bioavailability for CC(C)(C)CC[C@@]1(C)C(=O)C(C2=NS(=O)(=O)c3cc(NS(C)(=O)=O)ccc3N2)=C([O-])c2ccccc21.[Na+] stands at 19

====

Each entry below carries its reported half-life.
experiment description: Elimination half life in rat at 5 mg/kg, iv
Assay type: ADME, organism-based
Parameters: dose 5 mg/kg, route intravenous
condition details: in vivo, read-out: beta t1/2 (converted)
I only need the number, in h, no unit after it.

mol smiles	endpoint name	unit annotation	endpoint result
CC(C)CC[C@@]1(C)C(=O)C(C2=NS(=O)(=O)c3cc(NS(C)(=O)=O)ccc3N2)=C([O-])c2ccccc21.[Na+]	half-life	h	1.2

// half-life lookup, compound = CC(C)(C)CC[C@@]1(C)C(=O)C(C2=NS(=O)(=O)c3cc(NS(C)(=O)=O)ccc3N2)=C([O-])c2ccccc21.[Na+] , result: 4.5
